Values were extracted from ChEMBL document CHEMBL5058577.

# System: HEK-293T
# assay_comment: Multiplex assay against HEK293T
# Type: toxicity, cell-based
# details: human, 24 h, 10 µM, compound concentration 10 uM, replicate 2
Non-standard residues stand in square brackets, D forms with d. Residues, ends and D or L forms follow the SMILES beside them.
Recorded Population Normal (%) values for a group of compounds are listed next.
# unit: % | format: bare number

- compound: "COc1c(Nc2ccc(S(C)(=O)=O)nc2C)ncnc1OC1CCN(C(=O)OC(C)C)CC1"
  target_entity: "HEK-293T"
  number: 78
- compound: "CN(C)C/C=C/C(=O)Nc1ccc(C(=O)N2CCCC(Nc3ncc(Cl)c(-c4c[nH]c5ccccc45)n3)C2)cc1 (centres undefined)"
  target_entity: "HEK-293T"
  number: 65

Give the value of Population Normal (%) reported for the following: OCCCNc1cc(-c2ccnc(Nc3cccc(Cl)c3)n2)ccn1
54

Please indicate Population Normal (%) recorded for CC(C)C[C@@H]1NC(=O)[C@@H](C(C)C)NC(=O)[C@@H]2CCCN2C(=O)[C@@H](CC(=O)O)NC(=O)[C@@H](Cc2c[nH]c3ccccc23)NC1=O [BQ-123] (cyclo(L[dW][dD]P[dV]))
92
